# test_description: self-splicing fitness, log relative to wild type (ln ratio); higher = more splicing; Tetrahymena group I intron in knt gene, E. coli kanamycin selection, DiMSum; sequences stand for … in CUCUCU…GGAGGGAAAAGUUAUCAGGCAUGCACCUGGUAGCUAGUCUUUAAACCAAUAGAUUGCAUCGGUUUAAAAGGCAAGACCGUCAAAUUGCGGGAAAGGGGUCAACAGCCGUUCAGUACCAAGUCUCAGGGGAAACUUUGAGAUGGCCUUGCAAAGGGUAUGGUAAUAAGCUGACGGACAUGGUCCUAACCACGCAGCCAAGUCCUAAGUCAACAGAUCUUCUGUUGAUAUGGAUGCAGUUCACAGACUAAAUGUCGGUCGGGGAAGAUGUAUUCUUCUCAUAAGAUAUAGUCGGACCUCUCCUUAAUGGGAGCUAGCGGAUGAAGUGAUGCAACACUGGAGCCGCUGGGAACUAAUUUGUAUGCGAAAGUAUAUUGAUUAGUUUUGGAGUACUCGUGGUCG;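 note: selection with 25 µg/mL kanamycin versus none on LB agar overnight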
# measurement_conditions: 37 °C
Rule: self-splicing fitness (ln) under -0.5 gives class 0, otherwise class 1.

Enquiry: Quick check, self-splicing fitness (ln) >= -0.5? CAGAAGCAAUAUUACGAGAU
Return: class 0

Enquiry: Quick check, self-splicing fitness (ln) >= -0.5? UGGGAGCAAUAUUACGGGGA
Return: class 0

Enquiry: Quick check, self-splicing fitness (ln) >= -0.5? GGCCAGCAAUAUUACGUGAU
Return: class 1

Enquiry: Quick check, self-splicing fitness (ln) >= -0.5? CUCCAGCAAUAUUACGUGGG
Return: class 0

Enquiry: Quick check, self-splicing fitness (ln) >= -0.5? AAAUAGCAAUAUUACGCGCC
Return: class 1

Enquiry: Quick check, self-splicing fitness (ln) >= -0.5? GAGGAGCAAUAUUACGCAUU
Return: class 0

Enquiry: Quick check, self-splicing fitness (ln) >= -0.5? GGGCAGCAAUAUUACGUGGG
Return: class 0

Enquiry: Quick check, self-splicing fitness (ln) >= -0.5? CCAGAGCAAUAUUACGCAUG
Return: class 0

Enquiry: Quick check, self-splicing fitness (ln) >= -0.5? GUCAAGCAAUAUUACGGGAU
Return: class 0

Enquiry: Quick check, self-splicing fitness (ln) >= -0.5? UUGGAGCAAUAUUACGGCAU
Return: class 0

Enquiry: Quick check, self-splicing fitness (ln) >= -0.5? UAGAAGCAAUAUUACGCUCG
Return: class 1

Enquiry: Quick check, self-splicing fitness (ln) >= -0.5? AUCGAGCAAUAUUACGCACU
Return: class 1

Enquiry: Quick check, self-splicing fitness (ln) >= -0.5? GAGCAGCAAUAUUACGGCCU
Return: class 1

Enquiry: Quick check, self-splicing fitness (ln) >= -0.5? GAGCAGCAAUAUUACGGCUU
Return: class 0

Enquiry: Quick check, self-splicing fitness (ln) >= -0.5? GCCUAGCAAUAUUACGCGUU
Return: class 1

Enquiry: Quick check, self-splicing fitness (ln) >= -0.5? GGUGAGCAAUAUUACGCGGC
Return: class 0

Enquiry: Quick check, self-splicing fitness (ln) >= -0.5? UUGAAGCAAUAUUACGUGCG
Return: class 1

Enquiry: Quick check, self-splicing fitness (ln) >= -0.5? GUCGAGCAAUAUUACGACGA
Return: class 0

Enquiry: Quick check, self-splicing fitness (ln) >= -0.5? UCCCAGCAAUAUUACGUUUG
Return: class 0

Enquiry: Quick check, self-splicing fitness (ln) >= -0.5? UAGGAGCAAUAUUACGUGGC
Return: class 0

Enquiry: Quick check, self-splicing fitness (ln) >= -0.5? UCUCAGCAAUAUUACGGUGC
Return: class 0

Enquiry: Quick check, self-splicing fitness (ln) >= -0.5? CCAGAGCAAUAUUACGAGGA
Return: class 0

Enquiry: Quick check, self-splicing fitness (ln) >= -0.5? GAUAAGCAAUAUUACGAAUA
Return: class 0

Enquiry: Quick check, self-splicing fitness (ln) >= -0.5? AAAAAGCAAUAUUACGAACG
Return: class 1

Enquiry: Quick check, self-splicing fitness (ln) >= -0.5? AGCGAGCAAUAUUACGGCAU
Return: class 1
